Assay: Tolerability in Sprague-Dawley rats: body weight and organ weight (Example 35)
Type: in vivo
Conditions: 50 mg/kg s.c. twice per week for 6 weeks, vs saline control, normalized to body weight
Recorded Percent change in organ weight: Kidney by entry
valueType: Percent change in organ weight: Kidney

{"substance": "416826 (antisense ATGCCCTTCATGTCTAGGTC; 5-10-5 gapmer, further chemistry not given here) [compound 416826]", "observedMeasurement": "+44%"}
{"substance": "417002 (antisense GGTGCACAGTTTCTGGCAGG; 2-13-5 gapmer chemistry, further chemistry not given here) [compound 417002]", "observedMeasurement": "+63%"}
{"substance": "416999 (antisense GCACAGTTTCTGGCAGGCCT; 2-13-5 gapmer chemistry, further chemistry not given here) [compound 416999]", "observedMeasurement": "+71%"}

* * *

Test: Hematology assays in cynomolgus monkeys (Example 46)
Assay type: in vivo
Details: Day 55
Strand notation (5' to 3'): a small letter for the sugar, then the base; units joined by * are phosphorothioate-linked, units joined directly phosphodiester-linked; [ ] holds rarer units or linkages, { } end groups; capitals alone tell only the bases. e = 2'-O-(2-methoxyethyl) (MOE); [5mC] = 5-methylcytosine; d = 2'-deoxy (DNA)
Recorded MCHC by entry

{"substance": "ISIS 449707: 3-8-3, 4-8-4, 2-10-2, 3-10-3 or 4-10-4 MOE microwalk gapmer (Table 46) (antisense e[5mC]*eA*e[5mC]*eA*dG*dT*dT*dT*d[5mC]*dT*dG*dG*e[5mC]*eA*eG*eG)", "MCHC": "30.0 g/dL"}
{"substance": "ISIS 416858: MOE gapmer, nucleobases 1275 to 1318 of SEQ ID NO: 1 (Table 8) (antisense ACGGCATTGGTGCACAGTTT; MOE gapmer, wing and gap sizes not given here)", "MCHC": "30.4 g/dL"}

* * *

System: human Factor 11 mRNA
Test: Dose-dependent inhibition of human Factor 11 in HepB3 cells, lipofectin (Example 7)
Format: cell-based
Details: 2.3 nM, ~16 hours
Experimental: Cells were plated at a density of 4,000 cells per well and transfected using lipofectin reagent with 2.3 nM, 4.7 nM, 9.4 nM, 18.75 nM, 37.5 nM, and 75 nM concentrations of antisense oligonucleotide, as specified in Table 14. After a treatment period of approximately 16 hours, RNA was isolated from the cells and human Factor 11 mRNA levels were measured by quantitative real-time PCR. […] Factor 11 mRNA levels were adjusted according to total RNA content, as measured by RIBOGREEN. […]
valueType: percent inhibition of Factor 11 mRNA relative to untreated control cells (%)

{"substance": "416826 (antisense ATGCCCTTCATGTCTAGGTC; 5-10-5 gapmer, further chemistry not given here) [compound 416826]", "units": "%", "observedMeasurement": 16}
{"substance": "416864 (antisense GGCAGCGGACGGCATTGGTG; 5-10-5 gapmer, further chemistry not given here) [compound 416864]", "units": "%", "observedMeasurement": 24}
{"substance": "416999 (antisense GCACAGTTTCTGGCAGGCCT; 2-13-5 gapmer chemistry, further chemistry not given here) [compound 416999]", "units": "%", "observedMeasurement": 19}
{"substance": "417002 (antisense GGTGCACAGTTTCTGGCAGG; 2-13-5 gapmer chemistry, further chemistry not given here) [compound 417002]", "units": "%", "observedMeasurement": 24}
{"substance": "416825 (antisense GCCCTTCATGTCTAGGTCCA; 5-10-5 gapmer, further chemistry not given here) [compound 416825]", "units": "%", "observedMeasurement": 0}
{"substance": "416838 (antisense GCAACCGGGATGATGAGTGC; 5-10-5 gapmer, further chemistry not given here) [compound 416838]", "units": "%", "observedMeasurement": 23}
{"substance": "416850 (antisense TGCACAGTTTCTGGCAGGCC; 5-10-5 gapmer, further chemistry not given here) [compound 416850]", "units": "%", "observedMeasurement": 22}
{"substance": "417003 (antisense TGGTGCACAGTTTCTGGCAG; 2-13-5 gapmer chemistry, further chemistry not given here) [compound 417003]", "units": "%", "observedMeasurement": 11}
{"substance": "416892 (antisense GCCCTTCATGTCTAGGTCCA; 3-14-3 chimeric gapmer, further chemistry not given here) [compound 416892]", "units": "%", "observedMeasurement": 28}
{"substance": "416925 (antisense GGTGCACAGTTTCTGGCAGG; 3-14-3 gapmer chemistry, further chemistry not given here) [compound 416925]", "units": "%", "observedMeasurement": 26}
{"substance": "416858 (antisense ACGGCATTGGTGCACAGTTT; 5-10-5 gapmer, further chemistry not given here) [compound 416858]", "units": "%", "observedMeasurement": 17}

* * *

Settings: mouse, in vivo, sc, 50 mg/kg
e = 2'-O-(2-methoxyethyl) (MOE); d = 2'-deoxy (DNA)
Recorded Lymphocyte by entry

{"substance": "ISIS 445498: 5-8-5 or 6-8-6 MOE microwalk gapmer (Table 44) (antisense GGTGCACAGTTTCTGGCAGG; sugars from the 5' end e6 d8 e6, backbone and methylation of C not given here)", "Lymphocyte": 3241}
{"substance": "ISIS 445503: 5-8-5 or 6-8-6 MOE microwalk gapmer (Table 44) (antisense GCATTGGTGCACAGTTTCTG; sugars from the 5' end e6 d8 e6, backbone and methylation of C not given here)", "Lymphocyte": 6436}

* * *

Test: Hematology assays in cynomolgus monkeys (Example 46)
Format: in vivo
Conditions: Day 31
Strand notation (5' to 3'): a small letter for the sugar, then the base; units joined by * are phosphorothioate-linked, units joined directly phosphodiester-linked; [ ] holds rarer units or linkages, { } end groups; capitals alone tell only the bases. e = 2'-O-(2-methoxyethyl) (MOE); [5mC] = 5-methylcytosine; d = 2'-deoxy (DNA)

{"substance": "ISIS 445531: 5-8-5 or 6-8-6 MOE microwalk gapmer (Table 44) (antisense eG*eG*e[5mC]*eA*eT*dT*dG*dG*dT*dG*d[5mC]*dA*d[5mC]*eA*eG*eT*eT*eT)", "HCT / %": 41}
{"substance": "ISIS 416858: MOE gapmer, nucleobases 1275 to 1318 of SEQ ID NO: 1 (Table 8) (antisense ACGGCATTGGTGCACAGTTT; MOE gapmer, wing and gap sizes not given here)", "HCT / %": 43}
{"substance": "ISIS 449708: 3-8-3, 4-8-4, 2-10-2, 3-10-3 or 4-10-4 MOE microwalk gapmer (Table 46) (antisense eA*e[5mC]*eA*dG*dT*dT*dT*d[5mC]*dT*dG*dG*e[5mC]*eA*eG)", "HCT / %": 43}
{"substance": "ISIS 416850: MOE gapmer, nucleobases 1275 to 1318 of SEQ ID NO: 1 (Table 8) (antisense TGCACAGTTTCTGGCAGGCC; MOE gapmer, wing and gap sizes not given here)", "HCT / %": 42}
{"substance": "ISIS 449707: 3-8-3, 4-8-4, 2-10-2, 3-10-3 or 4-10-4 MOE microwalk gapmer (Table 46) (antisense e[5mC]*eA*e[5mC]*eA*dG*dT*dT*dT*d[5mC]*dT*dG*dG*e[5mC]*eA*eG*eG)", "HCT / %": 43}

* * *

Recorded Bilirubin by entry
Assay: Liver function, ALT, AST, bilirubin in cynomolgus monkeys (Example 46)
Type: in vivo
Conditions: Day −5; plasma
Strand notation (5' to 3'): a small letter for the sugar, then the base; units joined by * are phosphorothioate-linked, units joined directly phosphodiester-linked; [ ] holds rarer units or linkages, { } end groups; capitals alone tell only the bases. e = 2'-O-(2-methoxyethyl) (MOE); [5mC] = 5-methylcytosine; d = 2'-deoxy (DNA)
valueType: Bilirubin (mg/dL)

{"substance": "ISIS 445522: 5-8-5 or 6-8-6 MOE microwalk gapmer (Table 44) (antisense eG*e[5mC]*eA*e[5mC]*eA*dG*dT*dT*dT*d[5mC]*dT*dG*dG*e[5mC]*eA*eG*eG*e[5mC])", "units": "mg/dL", "observedMeasurement": 0.20}
{"substance": "ISIS 449709: 3-8-3, 4-8-4, 2-10-2, 3-10-3 or 4-10-4 MOE microwalk gapmer (Table 46) (antisense eG*e[5mC]*eA*e[5mC]*dA*dG*dT*dT*dT*d[5mC]*dT*dG*dG*d[5mC]*eA*eG*eG*e[5mC])", "units": "mg/dL", "observedMeasurement": 0.19}
{"substance": "ISIS 449710: 3-8-3, 4-8-4, 2-10-2, 3-10-3 or 4-10-4 MOE microwalk gapmer (Table 46) (antisense e[5mC]*eA*e[5mC]*dA*dG*dT*dT*dT*d[5mC]*dT*dG*dG*d[5mC]*eA*eG*eG)", "units": "mg/dL", "observedMeasurement": 0.19}
{"substance": "ISIS 449708: 3-8-3, 4-8-4, 2-10-2, 3-10-3 or 4-10-4 MOE microwalk gapmer (Table 46) (antisense eA*e[5mC]*eA*dG*dT*dT*dT*d[5mC]*dT*dG*dG*e[5mC]*eA*eG)", "units": "mg/dL", "observedMeasurement": 0.21}
{"substance": "ISIS 449711: 3-8-3, 4-8-4, 2-10-2, 3-10-3 or 4-10-4 MOE microwalk gapmer (Table 46) (antisense eA*e[5mC]*dA*dG*dT*dT*dT*d[5mC]*dT*dG*dG*d[5mC]*eA*eG)", "units": "mg/dL", "observedMeasurement": 0.16}
